system: T1, human GPC3 (Glypican-3) (human, UniProt P51654 25-580)
T1 construct: whole, on cells; the cell line is named under assay or readout
assay-comment: FACS on CHO-K1 cells overexpressing human GPC3 (GPC3-CHO-K1)
Mark each entry satisfied if its EC50 sits below 0.9 nM, and not satisfied for all others.

Lab note: confirm whether the reported EC50 for this binder is below 0.9 nM, equality not counting. binder: Hu 52H5D3B8-7/8 CDRs with Y035 FRs (antibody, V domains shown) VH: EVQLVQSGAEVKKPGASVKVSCKASGYTHSDYEMHWVRQAPGQGLEWMGAIHPGSGGTAYNQKFKGRVTITADKSTSTAYMELSSLRSEDTAVYYCARFYSYAYWGQGTLVTVSA VL: DIVMTQTPLSLPVTPGEPASISCRSSQSLVHSNGNTYLQWYLQKPGQSPQLLIYKVSNRFSGVPDRFSGSGSGTDFTLKISRVEAEDVGVYYCSQSIHVPYTFGQGTKLEIKR
satisfied

Lab note: confirm whether the reported EC50 for this binder is below 0.9 nM, equality not counting. binder: Y035 antibody (CARSGEN Therapeutics), humanized (antibody, V domains shown) VH: EVQLVQSGAEVKKPGASVKVSCKASGYTHSDYEMHWVRQAPGQGLEWMGAIHPGSGDTAYNQRFKGRVTITADKSTSTAYMELSSLRSEDTAVYYCARFYSYAYWGQGTLVTVSA VL: DIVMTQTPLSLPVTPGEPASISCRSSQSLVHSNGNTYLQWYLQKPGQSPQLLIYKVSNRFSGVPDRFSGSGSGTDFTLKISRVEAEDVGVYYCSQSIYVPYTFGQGTKLEIKR
not satisfied

Lab note: confirm whether the reported EC50 for this binder is below 0.9 nM, equality not counting. binder: Hu 52H5D3B8-7 (antibody, human IgG1, kappa, V domains shown, also called humanized GPC3 antibody Hu 52H5D3B8-7) VH: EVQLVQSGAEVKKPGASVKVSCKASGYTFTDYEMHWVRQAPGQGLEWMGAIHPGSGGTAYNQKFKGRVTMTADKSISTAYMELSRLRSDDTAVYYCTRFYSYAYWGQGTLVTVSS VL: DVVMTQTPLSLSVTPGQPASISCRSSQSLVHSNGNTYLQWYLQKPGQSPQLLIYKVSNRFSGVPDRFSGSGSGTDFTLKISRVEAEDVGVYYCSQSIHVPYTFGGGTKVEIKR
satisfied

Lab note: confirm whether the reported EC50 for this binder is below 0.9 nM, equality not counting. binder: Hu 52H5D3B8-8 (antibody, human IgG1, kappa, V domains shown, also called humanized GPC3 antibody Hu 52H5D3B8-8) VH: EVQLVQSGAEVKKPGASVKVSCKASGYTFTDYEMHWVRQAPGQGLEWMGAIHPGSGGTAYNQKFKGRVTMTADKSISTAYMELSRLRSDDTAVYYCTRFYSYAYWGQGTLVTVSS VL: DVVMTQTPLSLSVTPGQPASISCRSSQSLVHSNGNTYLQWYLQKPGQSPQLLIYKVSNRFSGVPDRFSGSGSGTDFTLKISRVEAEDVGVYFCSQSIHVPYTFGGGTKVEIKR
satisfied

Lab note: confirm whether the reported EC50 for this binder is below 0.9 nM, equality not counting. binder: GC33 antibody (Chugai Pharmaceutical) (antibody, V domains shown, Control antibody, prepared as in US 7919086 B2; Whole antibody; Detected with anti-human IgG) VH: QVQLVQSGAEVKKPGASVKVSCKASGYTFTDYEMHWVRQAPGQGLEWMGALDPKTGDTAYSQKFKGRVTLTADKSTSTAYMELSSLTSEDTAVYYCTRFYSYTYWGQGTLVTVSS VL: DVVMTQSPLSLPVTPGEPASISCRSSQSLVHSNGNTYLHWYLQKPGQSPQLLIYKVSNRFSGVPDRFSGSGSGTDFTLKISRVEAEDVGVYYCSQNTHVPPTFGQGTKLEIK
not satisfied
